# assay.details: Toxicity liver stage against HepG2, at 10uM
# Format: cell-based
# Set-up: test concentration 10 uM, cell line HepG2-A16-CD81EGFP
# particulars: human, HepG2-A16-CD81EGFP cells; read-out: INHIBITION
observation.type: cytotoxicity at 10 µM (%)
// note: answer is a bare numeric in %

Prompt: Provide cytotoxicity at 10 µM value for the following compound: COc1cc(F)ccc1C(C(=O)O)N(C)CCN1CCCC1 (stereo not given)
Response: -13.4

Prompt: Provide cytotoxicity at 10 µM value for the following compound: CC(=O)Nc1nc(C(=O)N2CCCC2c2ccc(Br)cc2)cs1 (stereo not given)
Response: -18.4

Prompt: Provide cytotoxicity at 10 µM value for the following compound: Cc1nccc(C2CCCN(C(=O)c3cncnc3)C2)n1 (stereo not given)
Response: 4.1

Prompt: Provide cytotoxicity at 10 µM value for the following compound: "CN(Cc1ccsc1)C(=O)COC(=O)c1cc(Cl)c[nH]1"
Response: -3.73

Prompt: Provide cytotoxicity at 10 µM value for the following compound: "CC(=O)N1CCC(n2nccc2-c2cnc(N(C)CCO)nc2)CC1"
Response: 5.47

Prompt: Provide cytotoxicity at 10 µM value for the following compound: Cc1nnc(NC(=O)C(C)n2ncc(Br)c2C)s1 (stereo not given)
Response: 1.81

Prompt: Provide cytotoxicity at 10 µM value for the following compound: "CCCc1nc(N(C)Cc2ccco2)c2c(n1)c(C)nn2CC"
Response: 16.9

Prompt: Provide cytotoxicity at 10 µM value for the following compound: COc1ccc(C2CCCCCN2Cc2cn(C)nc2C)cc1 (stereo not given)
Response: -4.96

Prompt: Provide cytotoxicity at 10 µM value for the following compound: "CCc1nc(CNc2ccc(F)c(F)c2)no1"
Response: 5.49

Prompt: Provide cytotoxicity at 10 µM value for the following compound: Cc1nc(Cn2c3c(ccc2=O)CC(N)CC3)cs1 (stereo not given)
Response: 1.88

Prompt: Provide cytotoxicity at 10 µM value for the following compound: "CCOCCOc1ccccc1C(=O)N1C[C@H](C2CC2)[C@@H](N)C1"
Response: -0.332

Prompt: Provide cytotoxicity at 10 µM value for the following compound: Cc1csc(N2CCN(Cc3nccn3C)CC2C)n1 (stereo not given)
Response: -0.274

Prompt: Provide cytotoxicity at 10 µM value for the following compound: "Cn1nc(Cn2cccn2)c2c1CN(Cc1ccsc1)C2"
Response: -148

Prompt: Provide cytotoxicity at 10 µM value for the following compound: "O=c1n(Cc2ccc(F)cc2)nc2ncccn12"
Response: -8.18

Prompt: Provide cytotoxicity at 10 µM value for the following compound: "CCN(CC)CCNC(=O)c1ccc(Cl)c(NS(C)(=O)=O)c1"
Response: 5.53

Prompt: Provide cytotoxicity at 10 µM value for the following compound: CCOCC1CC2(CCN(C(=O)CC3=CCCCC3)CC2)CO1 (stereo not given)
Response: -3.95

Prompt: Provide cytotoxicity at 10 µM value for the following compound: "CNCc1ccc(OCc2ccc3c(c2)OCCO3)cc1"
Response: 1.61

Prompt: Provide cytotoxicity at 10 µM value for the following compound: "CC(C)(C)CC(=O)N1CC[C@@H]2[C@H](CC1)N(S(C)(=O)=O)CCS2(=O)=O"
Response: -8.68

Prompt: Provide cytotoxicity at 10 µM value for the following compound: "CC(C)N(Cc1ccc(C#N)cc1)C(=O)Nc1ccccn1"
Response: -0.518

Prompt: Provide cytotoxicity at 10 µM value for the following compound: CN(c1ncc(S(N)(=O)=O)s1)C1CCc2ccccc2C1 (stereo not given)
Response: 11.1

Prompt: Provide cytotoxicity at 10 µM value for the following compound: "Cc1cccc(-n2nnnc2C2(NCc3ccco3)CCCCC2)c1"
Response: 6.27

Prompt: Provide cytotoxicity at 10 µM value for the following compound: O=C(c1ccc(C2CCCN2C(=O)c2ccc[nH]2)s1)N1CCSCC1 (stereo not given)
Response: 3.59

Prompt: Provide cytotoxicity at 10 µM value for the following compound: "CCO[C@@H]1CN(Cc2scnc2C)[C@@H]2CCCO[C@@H]21"
Response: -151

Prompt: Provide cytotoxicity at 10 µM value for the following compound: CC(NCCN1CCC(N(C)C)CC1)c1ccc(Cl)s1 (stereo not given)
Response: 25.9

Prompt: Provide cytotoxicity at 10 µM value for the following compound: "COc1ccc(CNCCc2cccc(C(N)=O)c2)cc1O"
Response: 8.42
